Kindly state Activity for each of the entries shown.
Test system: Mus musculus
Procedure Details: Phototoxicity in Swiss albino mouse assessed as ear thickness at 140 mg/kg, po after 96 hrs of irradiation
Assay type: organism-based
Set-up: dose 140 mg/kg, route oral
Stated Conditions: in vivo
Return type: number; implicit unit mm.

Input line: Give Activity (Mus musculus) of the following compound: CCn1cc(C(=O)O)c(=O)c2cc(F)c(N3CCNC(C)C3)c(F)c21 (stereo unspecified)
Output line: 0.6

Input line: // lookup Activity | system=Mus musculus | key= COc1c(N2CCN(C(=O)C3COc4ccccc4O3)CC2)c(F)cc2c(=O)c(C(=O)O)cn(C3CC3)c12 (stereo unspecified)
Output line: 0.32

Input line: Provide value of Activity for this record tested with Mus musculus: COc1c(N2CC(C)OC(C)C2)c(F)c([N+](=O)[O-])c2c(=O)c(C(=O)O)cn(C3CC3)c12 (stereo unspecified)
Output line: 0.33

Input line: For the record CCN(CC)C(=O)C1CCCN(c2c(F)cc3c(=O)c(C(=O)O)cn(C4CC4)c3c2OC)C1 (stereo unspecified) , what value of Activity is listed for Mus musculus?
Output line: 0.39

Input line: Provide the documented Activity with Mus musculus as the system for COc1c(N2CCN(Cc3ccc4c(c3)OCO4)CC2)c(F)c([N+](=O)[O-])c2c(=O)c(C(=O)O)cn(C3CC3)c12
Output line: 0.31

Input line: Give Activity (Mus musculus) of the following compound: COc1ccc(CC2C3=C(CCCC3)CCN2c2c(F)c([N+](=O)[O-])c3c(=O)c(C(=O)O)cn(C4CC4)c3c2OC)cc1 (stereo unspecified)
Output line: 0.32

----------
Tested on: Mycobacterium tuberculosis
Procedure Details: Antimycobacterial activity against Mycobacterium tuberculosis H37Rv by agar dilution method
Assay type: functional
Assign log10(MIC) to each entry below.
Please keep in mind that the values are log10 of MIC expressed in µM.

Input line: Requested field: log10(MIC). Item: COc1c(N2CCNC(C)C2)c(F)cc2c(=O)c(C(=O)O)cn(C3CC3)c12 (stereo not drawn) [GATIFLOXACIN]
Output line: 0.02

Input line: Quick check: log10(MIC) of COc1c(N2CCN(C)C(c3ccccc3)C2)c(F)c([N+](=O)[O-])c2c(=O)c(C(=O)O)cn(C3CC3)c12 (stereo not drawn) ?
Output line: 0.50

Input line: Dear colleague, I am looking for the recorded log10(MIC) of the following compound: COc1ccc(CC2C3=C(CCCC3)CCN2c2c(F)cc3c(=O)c(C(=O)O)cn(C4CC4)c3c2OC)cc1 (stereo not drawn)
Output line: 0.16

Input line: Tell me the measured log10(MIC) of COc1c(N2CCSCC2)c(F)cc2c(=O)c(C(=O)O)cn(C3CC3)c12 , please.
Output line: 0.31

Input line: Given COc1c(N2CCc3ccccc3C2C(=O)NC(C)(C)C)c(F)cc2c(=O)c(C(=O)O)cn(C3CC3)c12 (stereo not drawn) , state its recorded log10(MIC).
Output line: 1.09

Input line: Requested field: log10(MIC). Item: COc1c(N2CCN(C(=O)C3COc4ccccc4O3)CC2)c(F)cc2c(=O)c(C(=O)O)cn(C3CC3)c12 (stereo not drawn)
Output line: 0.17

Input line: Name the reported log10(MIC) value associated with the compound COc1c(N2CCN(C(=O)c3ccco3)CC2)c(F)c([N+](=O)[O-])c2c(=O)c(C(=O)O)cn(C3CC3)c12
Output line: 0.80

Input line: Would you mind telling me what log10(MIC) value was observed for COc1c(N2CC(C)OC(C)C2)c(F)cc2c(=O)c(C(=O)O)cn(C3CC3)c12 (stereo not drawn) ?
Output line: 0.60

Input line: # lookup: log10(MIC) of COc1c(N2CCN(Cc3ccc4c(c3)OCO4)CC2)c(F)c([N+](=O)[O-])c2c(=O)c(C(=O)O)cn(C3CC3)c12
Output line: -0.46

Input line: Request the reported log10(MIC) associated with COc1c(N2CCN(Cc3ccc4c(c3)OCO4)CC2)c(F)cc2c(=O)c(C(=O)O)cn(C3CC3)c12
Output line: 0.20

Input line: What measured log10(MIC) goes with COc1c(N2CCN(C(c3ccccc3)c3ccc(Cl)cc3)CC2)c(F)c([N+](=O)[O-])c2c(=O)c(C(=O)O)cn(C3CC3)c12 (stereo not drawn) ?
Output line: 0.11

Input line: Please look up its log10(MIC): COc1c(N2CC(C)OC(C)C2)c(F)c([N+](=O)[O-])c2c(=O)c(C(=O)O)cn(C3CC3)c12 (stereo not drawn)
Output line: -0.05

Input line: Entry under review: COc1ccc(CC2C3=C(CCCC3)CCN2c2c(F)c(N)c3c(=O)c(C(=O)O)cn(C4CC4)c3c2OC)cc1 (stereo not drawn) . Reported log10(MIC)?
Output line: 0.45

Input line: Which value of log10(MIC) has been reported for COc1c(N2CCc3ccccc3C2C(=O)NC(C)(C)C)c(F)c([N+](=O)[O-])c2c(=O)c(C(=O)O)cn(C3CC3)c12 (stereo not drawn) in the records?
Output line: 0.15

Input line: What log10(MIC) value was documented for this compound, COc1c(N2CCN(Cc3ccc4c(c3)OCO4)CC2)c(F)c(N)c2c(=O)c(C(=O)O)cn(C3CC3)c12 ?
Output line: 0.49

Input line: # input compound: COc1c(N2COCC2(C)C)c(F)cc2c(=O)c(C(=O)O)cn(C3CC3)c12 ; wanted: its log10(MIC)
Output line: 0.62

Input line: What value of measured log10(MIC) is listed for COc1c(N2CCC(N3CCCCC3)CC2)c(F)c([N+](=O)[O-])c2c(=O)c(C(=O)O)cn(C3CC3)c12 ?
Output line: 0.81

Input line: Please look up its log10(MIC): COc1ccc(CC2C3=C(CCCC3)CCN2c2c(F)c([N+](=O)[O-])c3c(=O)c(C(=O)O)cn(C4CC4)c3c2OC)cc1 (stereo not drawn)
Output line: -0.80

Input line: Which log10(MIC) is listed for COc1c(N2COCC2(C)C)c(F)c([N+](=O)[O-])c2c(=O)c(C(=O)O)cn(C3CC3)c12 ?
Output line: 0.27

Input line: // returns reported log10(MIC) for input COc1c(N2CCN(C(=O)C3COc4ccccc4O3)CC2)c(F)c([N+](=O)[O-])c2c(=O)c(C(=O)O)cn(C3CC3)c12 (stereo not drawn)
Output line: 0.14

Input line: Recorded log10(MIC) of COc1c(N2CCC(N3CCCCC3)CC2)c(F)cc2c(=O)c(C(=O)O)cn(C3CC3)c12 , please.
Output line: 0.85

Input line: What value of log10(MIC) has been reported for the following compound? COc1c(N2CCN(C)C(c3ccccc3)C2)c(F)cc2c(=O)c(C(=O)O)cn(C3CC3)c12 (stereo not drawn)
Output line: 1.14

Input line: Give the measured log10(MIC) of COc1c(N2CCC(O)(c3ccc(Cl)cc3)CC2)c(F)c([N+](=O)[O-])c2c(=O)c(C(=O)O)cn(C3CC3)c12 .
Output line: 0.77

Input line: Would you kindly share the measured log10(MIC) for COc1c(N2CCn3cc(C(=O)O)nc3C2)c(F)cc2c(=O)c(C(=O)O)cn(C3CC3)c12 ?
Output line: 0.55

Input line: Could you share which log10(MIC) value was measured for CCN(CC)C(=O)C1CCCN(c2c(F)cc3c(=O)c(C(=O)O)cn(C4CC4)c3c2OC)C1 (stereo not drawn) ?
Output line: 0.23

Input line: Please look up its log10(MIC): COc1c(N2CCN(C(=O)c3ccco3)CC2)c(F)cc2c(=O)c(C(=O)O)cn(C3CC3)c12
Output line: 1.14

Input line: Requested field: log10(MIC). Item: COc1c(N2CCn3cc(C(=O)O)nc3C2)c(F)c([N+](=O)[O-])c2c(=O)c(C(=O)O)cn(C3CC3)c12
Output line: 0.49

Input line: Sample COc1c(N2CCN(C(c3ccccc3)c3ccc(Cl)cc3)CC2)c(F)cc2c(=O)c(C(=O)O)cn(C3CC3)c12 (stereo not drawn) — what was its log10(MIC)?
Output line: 1.05

Input line: Requested read-out: log10(MIC). Entry: NNC(=O)c1ccncc1 [ISONIAZID]
Output line: -0.44

Input line: # lookup: log10(MIC) of CCN(CC)C(=O)C1CCCN(c2c(F)c([N+](=O)[O-])c3c(=O)c(C(=O)O)cn(C4CC4)c3c2OC)C1 (stereo not drawn)
Output line: 0.19

Input line: Return reported log10(MIC); argument: COc1c(N2CCC(O)(c3ccc(Cl)cc3)CC2)c(F)cc2c(=O)c(C(=O)O)cn(C3CC3)c12
Output line: 0.81

Input line: Using the record for COc1c(N2CCSCC2)c(F)c([N+](=O)[O-])c2c(=O)c(C(=O)O)cn(C3CC3)c12 , report its log10(MIC).
Output line: 0.26

Input line: Using the record for COc1c(N2CCC3(CC2)OCCO3)c(F)c([N+](=O)[O-])c2c(=O)c(C(=O)O)cn(C3CC3)c12 , report its log10(MIC).
Output line: -0.08
